melting point reference

| molSmiles | melting point |
| --- | --- |
| CCOC(=O)/C=C/c1ccc(OCCCS(C)(=O)=O)cc1Oc1ncc(C(F)(F)F)cc1Cl | 191 °C |
| FC(F)(F)c1ccc(-c2cc(C(F)(F)F)n3ncc(I)c3c2)cc1 | 130 °C |
| CCCCc1oc2ccccc2c1C(=O)NCc1ccc2c(-c3ccc(Cl)cc3)c(OCc3nnn[nH]3)ccc2c1 | 208 to 211 °C |
| CCOC(=O)CC(=O)NNC(=O)c1cc2cccc(N(C)S(=O)(=O)c3cccs3)c2[nH]1 | 119 to 121 °C |
| CCCCCNC(=O)[C@H](Cc1ccc(OCC(=O)O)c(-c2cc(O)no2)c1)NC(=O)[C@H](Cc1ccccc1)NC(=O)OC(C)(C)C | 122 to 123 °C |
| CN(C)CC(=O)N(C)c1cccc(-c2ccnc3c(C(=O)c4ccccc4)cnn23)c1 | 166 to 168 °C |
